- assay-name: self-splicing fitness, log relative to wild type (ln ratio); higher = more splicing; Tetrahymena group I intron in knt gene, E. coli kanamycin selection, DiMSum; sequences stand for … in CUCUCU…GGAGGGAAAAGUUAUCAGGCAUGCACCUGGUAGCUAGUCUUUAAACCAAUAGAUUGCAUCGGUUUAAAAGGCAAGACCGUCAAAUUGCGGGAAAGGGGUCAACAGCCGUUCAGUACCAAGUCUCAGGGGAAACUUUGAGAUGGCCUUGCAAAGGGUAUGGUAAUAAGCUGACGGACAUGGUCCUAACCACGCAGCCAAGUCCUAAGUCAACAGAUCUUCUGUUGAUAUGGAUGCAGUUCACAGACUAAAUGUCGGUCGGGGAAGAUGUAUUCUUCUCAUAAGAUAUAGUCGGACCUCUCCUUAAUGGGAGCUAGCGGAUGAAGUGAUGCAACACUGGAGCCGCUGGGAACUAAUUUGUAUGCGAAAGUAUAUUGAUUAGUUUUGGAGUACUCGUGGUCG;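 further: selection with 25 µg/mL kanamycin versus none on LB agar overnight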
- condition-info: 30 °C
sequences and their reported self-splicing fitness (ln)

Worked cases, answers included:
Challenge: Any idea what its self-splicing fitness (ln) is? The sequence is GUACAGCAAUAUUACGGAGU
Response given: -3.06

Challenge: State the recorded self-splicing fitness (ln) for this entry: UCUUAGCAAUAUUACGCAAA
Response given: -1.56

Challenge: Dear colleague, I am looking for the recorded self-splicing fitness (ln) of the following sequence: GCUCAGCAAUAUUACGUGUU
Response given: -0.538

Challenge: Using the record for UAGAAGCAAUAUUACGAGAG , report its self-splicing fitness (ln).
Response given: -3.63

Challenge: Please report the recorded self-splicing fitness (ln) for AACCAGCAAUAUUACGGUCC .
Response given: -0.721

Now for another entry.
Challenge: Quick one: self-splicing fitness (ln) for UGAUAGCAAUAUUACGGUUU ?
Response given: -2.91

----------
- assay-name: self-splicing fitness, log relative to wild type (ln ratio); higher = more splicing; Tetrahymena group I intron in knt gene, E. coli kanamycin selection, DiMSum; sequences stand for … in CUCUCU…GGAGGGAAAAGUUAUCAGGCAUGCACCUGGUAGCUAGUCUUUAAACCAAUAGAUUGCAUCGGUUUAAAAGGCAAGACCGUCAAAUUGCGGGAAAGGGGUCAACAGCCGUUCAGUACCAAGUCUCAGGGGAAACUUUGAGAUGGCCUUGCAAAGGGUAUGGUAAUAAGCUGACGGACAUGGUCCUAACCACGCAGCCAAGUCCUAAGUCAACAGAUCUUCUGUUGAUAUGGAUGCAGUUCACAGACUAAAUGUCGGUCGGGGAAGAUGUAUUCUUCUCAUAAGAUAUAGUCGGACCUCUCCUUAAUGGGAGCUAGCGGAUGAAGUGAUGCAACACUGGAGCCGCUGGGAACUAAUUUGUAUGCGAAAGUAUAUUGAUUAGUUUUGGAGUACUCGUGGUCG
- condition-info: 37 °C
measured-property: self-splicing fitness (ln)
A bare number is all that is needed in reply.

Known self-splicing fitness (ln) results, listed for orientation:
Challenge: # input sequence: ACAGAGCAAUAUUACGGGUU ; wanted: its self-splicing fitness (ln)
Response given: -3.08

Challenge: What does the record list as self-splicing fitness (ln) for GCGAAGCAAUAUUACGUUCA ?
Response given: -0.809

Challenge: Item CAGGAGCAAUAUUACGGUGU has what recorded self-splicing fitness (ln)?
Response given: -2.66

Challenge: Any idea what self-splicing fitness (ln) was measured for GUCGAGCAAUAUUACGACUU ?
Response given: -1.3

Challenge: Could you share which self-splicing fitness (ln) value was measured for UUGCAGCAAUAUUACGAAUU ?
Response given: -0.985

Next:
Challenge: Which self-splicing fitness (ln) value is on record for CCUUAGCAAUAUUACGCCGG ?
Response given: -2.73

Challenge: Which self-splicing fitness (ln) value is on record for CUUCAGCAAUAUUACGGAGG ?
Response given: -2.09
